Each entry below carries its reported PBM E-score.
Test system: Caupolican (Caup) homeodomain DNA-binding domain
Sequence: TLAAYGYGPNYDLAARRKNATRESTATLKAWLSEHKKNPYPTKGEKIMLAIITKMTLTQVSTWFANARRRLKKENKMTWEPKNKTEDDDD
Assay: PBM E-score (8-mer, recovered from the published 9-mer minima) (E-score (dimensionless, -0.5 to 0.5)); Drosophila protein; higher = stronger relative binding preference, active = 0.31 or more
Only a selection was taken, and hits are over-represented in it overall. No count for the full screen is at hand.

[
  {
    "sequenceChain": "ATAGACAT",
    "PBM E-score": 0.321
  },
  {
    "sequenceChain": "AATGTCCA",
    "PBM E-score": 0.251
  },
  {
    "sequenceChain": "CACGGTCC",
    "PBM E-score": -0.0957
  },
  {
    "sequenceChain": "ATAATCAG",
    "PBM E-score": 0.101
  },
  {
    "sequenceChain": "AGGGCGTC",
    "PBM E-score": -0.192
  },
  {
    "sequenceChain": "CGGATGGC",
    "PBM E-score": -0.0761
  },
  {
    "sequenceChain": "CGTGAACC",
    "PBM E-score": -0.0185
  },
  {
    "sequenceChain": "CCAGAGAG",
    "PBM E-score": -0.172
  },
  {
    "sequenceChain": "CACACCGG",
    "PBM E-score": -0.087
  },
  {
    "sequenceChain": "AACGTACC",
    "PBM E-score": 0.0531
  },
  {
    "sequenceChain": "AACCAGGA",
    "PBM E-score": 0.0369
  },
  {
    "sequenceChain": "AATGTCCC",
    "PBM E-score": 0.0508
  },
  {
    "sequenceChain": "CGCTTGTC",
    "PBM E-score": 0.272
  },
  {
    "sequenceChain": "GGCTTGGA",
    "PBM E-score": -0.0906
  },
  {
    "sequenceChain": "ACCCAGGC",
    "PBM E-score": -0.17
  },
  {
    "sequenceChain": "CATGTAGA",
    "PBM E-score": 0.391
  },
  {
    "sequenceChain": "AAGTCTGT",
    "PBM E-score": 0.139
  },
  {
    "sequenceChain": "AATGTAGA",
    "PBM E-score": 0.139
  },
  {
    "sequenceChain": "CAAGTAGG",
    "PBM E-score": -0.00819
  },
  {
    "sequenceChain": "AGCTTGTC",
    "PBM E-score": 0.261
  },
  {
    "sequenceChain": "AATGTAGG",
    "PBM E-score": 0.116
  },
  {
    "sequenceChain": "ATGTTATG",
    "PBM E-score": 0.338
  },
  {
    "sequenceChain": "CATGTAGG",
    "PBM E-score": 0.356
  },
  {
    "sequenceChain": "CGTAAACG",
    "PBM E-score": -0.0383
  },
  {
    "sequenceChain": "GGGCTGAC",
    "PBM E-score": -0.108
  },
  {
    "sequenceChain": "ACTATCGG",
    "PBM E-score": -0.056
  },
  {
    "sequenceChain": "GAGTGCAA",
    "PBM E-score": 0.065
  },
  {
    "sequenceChain": "AGCTTCAC",
    "PBM E-score": -0.0515
  },
  {
    "sequenceChain": "CTAGTACA",
    "PBM E-score": 0.337
  },
  {
    "sequenceChain": "GTAGTAGA",
    "PBM E-score": 0.0981
  },
  {
    "sequenceChain": "GGGATATA",
    "PBM E-score": -0.0036
  },
  {
    "sequenceChain": "ACTTGTAC",
    "PBM E-score": 0.407
  },
  {
    "sequenceChain": "CTAGTACC",
    "PBM E-score": 0.201
  },
  {
    "sequenceChain": "GATGTAGA",
    "PBM E-score": 0.208
  },
  {
    "sequenceChain": "AACACCTA",
    "PBM E-score": 0.183
  },
  {
    "sequenceChain": "ATCGTACG",
    "PBM E-score": 0.133
  },
  {
    "sequenceChain": "AGCTTGTA",
    "PBM E-score": 0.368
  },
  {
    "sequenceChain": "AGCATGCC",
    "PBM E-score": -0.0456
  },
  {
    "sequenceChain": "AGCATGTG",
    "PBM E-score": 0.222
  },
  {
    "sequenceChain": "CCTTGTAG",
    "PBM E-score": 0.322
  },
  {
    "sequenceChain": "GAACAGTA",
    "PBM E-score": 0.173
  },
  {
    "sequenceChain": "CTATATTA",
    "PBM E-score": 0.168
  },
  {
    "sequenceChain": "TCATTTAA",
    "PBM E-score": 0.167
  },
  {
    "sequenceChain": "CGCATGTC",
    "PBM E-score": 0.348
  },
  {
    "sequenceChain": "AGTCGTCC",
    "PBM E-score": -0.0214
  },
  {
    "sequenceChain": "ATGTTATC",
    "PBM E-score": 0.351
  },
  {
    "sequenceChain": "ATCGGTAC",
    "PBM E-score": 0.0373
  },
  {
    "sequenceChain": "CACACATG",
    "PBM E-score": 0.192
  },
  {
    "sequenceChain": "CGTACTAG",
    "PBM E-score": 0.107
  },
  {
    "sequenceChain": "GGCTAAAC",
    "PBM E-score": -0.0281
  },
  {
    "sequenceChain": "TCAACGAA",
    "PBM E-score": 0.0771
  },
  {
    "sequenceChain": "CAAAGTAC",
    "PBM E-score": 0.172
  },
  {
    "sequenceChain": "CGTTGTAG",
    "PBM E-score": 0.154
  },
  {
    "sequenceChain": "GGATGCTA",
    "PBM E-score": -0.0509
  },
  {
    "sequenceChain": "CTTTGTAC",
    "PBM E-score": 0.229
  },
  {
    "sequenceChain": "CCTTGTAC",
    "PBM E-score": 0.399
  },
  {
    "sequenceChain": "ACGTTATC",
    "PBM E-score": 0.0197
  },
  {
    "sequenceChain": "GTAGTACA",
    "PBM E-score": 0.346
  },
  {
    "sequenceChain": "GCAACGCC",
    "PBM E-score": -0.0458
  },
  {
    "sequenceChain": "CGCTTGTA",
    "PBM E-score": 0.313
  },
  {
    "sequenceChain": "CGCGAACG",
    "PBM E-score": -0.0783
  },
  {
    "sequenceChain": "CATAGGTA",
    "PBM E-score": 0.0694
  },
  {
    "sequenceChain": "GATCAGGC",
    "PBM E-score": -0.0491
  },
  {
    "sequenceChain": "ATGGCCCC",
    "PBM E-score": -0.175
  },
  {
    "sequenceChain": "CGCATGTA",
    "PBM E-score": 0.352
  },
  {
    "sequenceChain": "CATCCCAC",
    "PBM E-score": -0.133
  },
  {
    "sequenceChain": "ACAAACCG",
    "PBM E-score": 0.0217
  },
  {
    "sequenceChain": "ATCGTACC",
    "PBM E-score": -0.0488
  },
  {
    "sequenceChain": "ATAGTACA",
    "PBM E-score": 0.343
  },
  {
    "sequenceChain": "GATGTAGC",
    "PBM E-score": 0.166
  },
  {
    "sequenceChain": "CAACGCAA",
    "PBM E-score": 0.0313
  },
  {
    "sequenceChain": "GCGCCGAC",
    "PBM E-score": -0.199
  },
  {
    "sequenceChain": "CGCATGAC",
    "PBM E-score": -0.0417
  },
  {
    "sequenceChain": "GTAGACAA",
    "PBM E-score": 0.313
  },
  {
    "sequenceChain": "GTCGTACA",
    "PBM E-score": 0.352
  },
  {
    "sequenceChain": "GGCTTGAA",
    "PBM E-score": -0.103
  },
  {
    "sequenceChain": "ATAGTACC",
    "PBM E-score": 0.134
  },
  {
    "sequenceChain": "CCCACCTA",
    "PBM E-score": -0.1
  },
  {
    "sequenceChain": "CGGTTGTC",
    "PBM E-score": 0.185
  },
  {
    "sequenceChain": "CACGTACA",
    "PBM E-score": 0.261
  },
  {
    "sequenceChain": "AGGTTATA",
    "PBM E-score": 0.0929
  },
  {
    "sequenceChain": "AGGTTATG",
    "PBM E-score": 0.044
  }
]
